The values you see were collected from patent US9079821B2.

# PROTOCOL TEXT: Pharmacokinetic profile in rats (blood 15N-nitrite levels)
# Format: in vivo, rat
# CONDITIONS: rat, in vivo, po, 30 mg/kg
Below, each of the molecules is paired with its reported Cmax value.

[[record]]
molecule = "CC1=C(CCCOCCCO[N+](=O)[O-])C(=O)c2ccccc2C1=O [^15N-Compound (25)]"
observed_value = "2.89 µM"

[[record]]
molecule = "COC1=C(OC)C(=O)C(CCCCCCCCCCO[N+](=O)[O-])=C(C)C1=O [^15N-Compound (6)]"
observed_value = "2.6 µM"

[[record]]
molecule = "COC1=C(C)C(=O)C(C)=C(CCCCCCO[N+](=O)[O-])C1=O [^15N-Compound (28)]"
observed_value = "3.74 µM"


Attention now shifts to the item below.
Any idea what its Cmax is? The molecule is COC1=C(OC)C(=O)C(CCCCO[N+](=O)[O-])=C(C)C1=O [^15N-Compound (4)] 3.33 µM
